# studyTarget: T1, human Trop-2-His protein (human, UniProt P09758 27-274)
# T1 construct: extracellular domain; Assay paragraphs say only 'Trop-2-His'; also called hTrop-2; Kactus Cat #TRP-HM121; not shown: His tag
# T1 sequence (looked up): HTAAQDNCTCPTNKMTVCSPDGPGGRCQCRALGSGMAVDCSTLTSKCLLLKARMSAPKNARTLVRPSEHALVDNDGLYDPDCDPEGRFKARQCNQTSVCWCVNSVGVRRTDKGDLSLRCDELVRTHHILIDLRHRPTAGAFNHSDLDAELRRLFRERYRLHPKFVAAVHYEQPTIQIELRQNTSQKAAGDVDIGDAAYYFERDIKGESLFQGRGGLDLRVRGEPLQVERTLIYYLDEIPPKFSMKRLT
# assaySummary: BLI (Gator Prime), LEM supernatant Ab on HFC probe
Answer each item with its documented kon.
Report as: number unit

Find the measured kon of 62E3 (antibody, V domains shown, Rabbit-derived clone; LEM construct: VH + rabbit IgG CH1 + human IgG1 CH2-CH3) VH: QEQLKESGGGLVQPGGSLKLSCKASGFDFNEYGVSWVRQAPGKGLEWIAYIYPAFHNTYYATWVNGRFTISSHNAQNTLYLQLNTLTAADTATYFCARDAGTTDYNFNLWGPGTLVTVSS VL: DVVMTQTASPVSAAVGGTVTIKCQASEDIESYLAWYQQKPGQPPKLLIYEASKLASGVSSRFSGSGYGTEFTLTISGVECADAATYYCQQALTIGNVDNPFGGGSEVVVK and report it.
607000 M⁻¹ s⁻¹

Fill in reported kon for this entry: 71F10 (antibody, V domains shown, Rabbit-derived clone; LEM construct: VH + rabbit IgG CH1 + human IgG1 CH2-CH3) VH: QSLEESGGGLVQPGASLTLTCTVSGFDFSSNAMTWVRQAPGEGLEYIGFIGIRGNIYYANWAKGRFTISKTSSTTVTLQMTSLTVADTATYFCARGGLWTGNSYFDLWGPGTLVTVSS VL: YDMTQTPASVSAAVGGTVTINCQASESISRYLAWYQQKPGQPPKPLIYRASTLASGVPSRFKGSGTGTDYTLTISDLECADAATYYCQQGYGYSTVGNAFGGGTEVVVK
459000 M⁻¹ s⁻¹
